- target or system: cynomolgus monkey IL-2Rα/CD25 subunit (cynomolgus monkey) (UniProt H6WS54)
- Sequence (H6WS54 entry or part of it): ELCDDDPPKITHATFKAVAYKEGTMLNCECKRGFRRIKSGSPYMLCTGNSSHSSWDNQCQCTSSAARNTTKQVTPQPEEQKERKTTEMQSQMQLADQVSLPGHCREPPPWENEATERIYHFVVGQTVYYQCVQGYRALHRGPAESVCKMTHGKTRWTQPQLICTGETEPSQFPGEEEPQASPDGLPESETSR
- assay text: ELISA, monovalent; EC50 cyno vs human subunit
Measured Fold change values are reported for all entries that follow.
Reply numerically in fold, unit not repeated.

Some solved cases for reference:
- 3-MP01E03 VHH-hFc, monospecific monovalent (Fc fusion, part only; not given: Both Fc arms and linker, not shown: another chain or arm of the molecule; a dimerising Fc or GST; small tags and cut ends) VHH: QVQLVESGGGLVQAGGSLRLSCTASGRTLSSYSMAWFRQAADKGREFVTAISSSGVVTHVLDSVKGRFTISRDNAKNTVYLQMNSLQPEDTALYFCAGTASSYSTYEANYNYWGQGTLVTVSS: 13.4
- 9-MP05G01 VHH-hFc, monospecific monovalent (Fc fusion, part only; not given: Both Fc arms and linker, not shown: another chain or arm of the molecule; a dimerising Fc or GST; small tags and cut ends) VHH: EVQLVESGGGLVQAGGSLRLSCAASGGSIYTYNMGWFRQAPGKEREFVAGTLWSGGDSVYADFAKGRFTLSRENAKNTLYLQMNSLKPEDTATYYCAIDPLSLTSDWRVDELSSWGKGTLVTVSS: 1
- 8-MP01C12 VHH-hFc, monospecific monovalent (Fc fusion, part only; not given: Both Fc arms and linker, not shown: another chain or arm of the molecule; a dimerising Fc or GST; small tags and cut ends) VHH: QVQLVESGGGLVQPGGSLRLSCATSGFTFSNNFMSWVRQAPGKGLEFVSTISYGGESTTYAEAVKGRFTISRDNAKNTLYLQMNNLKPEDTAIYYCAKATSYTSIRGAPRGQGTQVTVSS: 1.1

Annotate the binder 12-MP05B12 VHH-hFc, monospecific monovalent (Fc fusion, part only; not given: Both Fc arms and linker, not shown: another chain or arm of the molecule; a dimerising Fc or GST; small tags and cut ends) VHH: QVQLVESGGGLVQAGGSLRLSCAASGFTFDGYAIGWFRQAPGKEREGVSYITGSDGSTYYADSVKGRFTISSNNAKNTVYLHMNSLKPDDAAVYYCAIDRLGSRGAYVPIWWRSSDMDLWGKGTLVTVSS with its measured Fold change.
8.5
